The following compounds are listed with their measured pIC50 values.
biological target: HCV NS3 protease type 1b/NS4A cofactor peptide (Hepatitis C virus genotype 1b); construct: recombinant HCV NS3 protease (amino acid 1027 to 1206) was cloned in the pET11d bacterial expression vector; made in house; host or cells: E. coli BL21(DE3)pLysS; assay: Recombinant HCV NS3 protease/NS4A cofactor peptide radiometric assay; format: biochemical, HCV genotype 1b; conditions: IC50, Table 2, unmarked values: NS3 protease/NS4A cofactor peptide radiometric assay
Sequence (P26663 1027-1206, other chains not shown): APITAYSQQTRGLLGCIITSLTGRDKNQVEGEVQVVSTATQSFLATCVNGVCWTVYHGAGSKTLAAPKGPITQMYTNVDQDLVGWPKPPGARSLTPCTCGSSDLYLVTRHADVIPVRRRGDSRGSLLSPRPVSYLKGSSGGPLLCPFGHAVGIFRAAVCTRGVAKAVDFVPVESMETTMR
Where a SMILES comes first, the peptide text is derived from it. [ ]: non-standard residue; d: D form. The star is where a group is joined. Hyp = O=C(O)[C@@H]1C[C@@H](O)CN1; Chg = N[C@H](C(=O)O)C1CCCCC1; Nva = CCC[C@H](N)C(=O)O; Ac3c = NC1(C(=O)O)CC1; Bn = c1ccc(C*)cc1
Would you please state pIC50, meaning minus log10 of the concentration in mol/L, as a bare number?

>>> result_value("CC(=O)N[C@H](C(=O)N[C@H](C(=O)N1C[C@H](Oc2ccc(Br)cc2)C[C@H]1C(=O)NC1(C(=O)O)CC1)C(C)C)C1CCCCC1 [compound 238]")
4.57
>>> result_value("CC[C@H](C)[C@H](NC(=O)[C@@H](CCC(=O)O)NC(=O)[C@H](CC(=O)O)NC(C)=O)C(=O)N[C@H](C(=O)N1C[C@H](OCc2ccccc2)C[C@H]1C(=O)NC1(C(=O)O)CC1)C(C)C [compound 212] (Ac-D[dE]IV[Hyp](Bn)[Ac3c]-OH; C-terminus assumed)")
6.68
>>> result_value("CC(=O)N[C@@H](CC(=O)O)C(=O)N[C@H](CCC(=O)O)C(=O)N[C@H](C(=O)N[C@H](C(=O)N1C[C@H](OCc2ccccc2)C[C@H]1C(=O)N[C@@H](CS)C(=O)O)C(C)C)C1CCCCC1 [compound 210] (Ac-D[dE][Chg]V[Hyp](Bn)C-OH)")
7.48

Attention now shifts to the item below.
Req: Answer with pIC50 of CCC[C@H](NC(=O)[C@@H]1C[C@@H](OCc2ccccc2)CN1C(=O)[C@@H](NC(=O)[C@@H](NC(=O)[C@@H](CCC(=O)O)NC(=O)[C@H](CC(=O)O)NC(C)=O)[C@@H](C)CC)C(C)C)C(=O)O [compound 203] (Ac-D[dE]IV[Hyp](Bn)[Nva]-OH; C-terminus assumed) measured for HCV NS3 protease type 1b/NS4A cofactor peptide (Hepatitis C virus genotype 1b).
Resp: 6.22
